System: HEK-293T
assay.info: Multiplex assay against HEK293T
Assay type: toxicity, cell-based
experimental.setup: human, 48 h, 1 µM, compound concentration 1 uM, number of replicates 2
Consider the following compounds and their measured Population Normal (%) readings.
Just the number please, in %, no unit attached.

# count of solved cases: 4
Cc1onc(-c2ccccc2Cl)c1C(=O)N(C)c1ccc(Cl)cc1 :: 91
Cc1ccc(C(=O)Nc2cc(N3CCN(C)CC3)cc(C(F)(F)F)c2)cc1-n1cc(-c2cnn(C)c2C)nn1.Cl :: 89
COc1cccc(Cn2cc(C(=O)Nc3ccc(C)c(S(=O)(=O)N4CCOCC4)c3)c(-c3ccc(C)cc3)n2)c1 :: 90
CCCCOc1c(C(=O)c2c(F)cc(C)cc2F)c[nH]c2nncc1-2 :: 83

## Input Entry CC(C)N(CCCCOCC(=O)NS(C)(=O)=O)c1cnc(-c2ccccc2)c(-c2ccccc2)n1 has what Population Normal (%)?
## Output 91

## Input Entry CCn1ccc(Nc2ncc3c(n2)-c2c(nn(C)c2-c2ccc(-c4cnn(C)c4)cc2Cl)CC3)n1 has what Population Normal (%)?
## Output 79

###

Consider the following compounds and their measured Population Fragmented Nuclei (%) readings.
System: HEK-293T
assay.info: Multiplex assay against HEK293T
Type: toxicity, cell-based
experimental.setup: human, 48 h, 1 µM, compound concentration 1 uM, number of replicates 2
Just the number please, in %, no unit attached.

CCCNc1ccc2ncc(-c3ccncc3)n2n1 :: 14
COc1cccc(Cn2cc(C(=O)Nc3ccc(C)c(S(=O)(=O)N4CCOCC4)c3)c(-c3ccc(C)cc3)n2)c1 :: 8
CCNc1ccc(-c2nn(-c3ccccc3C)c3c2C(C)Cc2nc(NC(=O)OC)sc2-3)cn1.O=C(O)C(F)(F)F (stereo not given) :: 11
Cc1c(C(=O)Nc2ccc(N3C[C@@H](C)O[C@@H](C)C3)nc2)cccc1-c1ccc(OC(F)(F)F)cc1 [SONIDEGIB] :: 12

## Input Entry CN(C)CC#Cc1ccc2[nH]c3c(c2c1)-c1nc(N)ncc1CCC3 has what Population Fragmented Nuclei (%)?
## Output 17

###

Consider the following molecules and their measured Population Healthy Nuclei (%) readings.
Test system: HEK-293T
assay.info: Multiplex assay against HEK293T
Assay type: toxicity, cell-based
experimental.setup: human, 48 h, 10 µM, compound concentration 10 uM, number of replicates 2
Just the number please, in %, no unit attached.

# count of solved cases: 3
CS(=O)(=O)c1ccc(C(=O)Nc2cccc(COc3ccc(Br)cc3CN3CC[C@H](O)C3)c2)cc1.O=CO :: 86
NCC1CCC(CNc2nc(NCc3ccccc3OC(F)(F)F)ncc2[N+](=O)[O-])CC1 (centres undefined) :: 80
COc1ccc(-c2cc3c(C)nc(N)nc3n([C@H]3CC[C@H](OCCO)CC3)c2=O)cn1 :: 74

## Input Entry CN(C)[C@H]1CC[C@H](Nc2ncc3ncnc(Nc4ccc(F)c(Cl)c4)c3n2)CC1 has what Population Healthy Nuclei (%)?
## Output 74

###

Tested on: HEK-293T
assay.info: Multiplex assay against HEK293T
Format: toxicity, cell-based
experimental.setup: human, 12 h, 10 µM, compound concentration 10 uM, number of replicates 2
Consider the following compounds and their measured Population Hoechst High Intensity Objects (%) readings.
Just the number please, in %, no unit attached.

COc1nc2ccc([C@@](O)(c3ccc(Cl)cc3)c3cncn3C)cc2c(Cl)c1Cc1ccc(-n2cccn2)cc1 [JNJ-53721590] :: 6
CN[C@@H]1CC[C@@H](c2ccc(Cl)c(Cl)c2)c2ccccc21.Cl :: 6

## Input Entry COc1cc(C(=O)NC2CCN(C)CC2)ccc1Nc1ncc(C(F)(F)F)c(NCc2ccc(C)cc2N(C)S(C)(=O)=O)n1.O=CO.O=CO has what Population Hoechst High Intensity Objects (%)?
## Output 23

## Input Entry CCNc1ccc(-c2nn(-c3ccccc3C)c3c2C(C)Cc2nc(NC(=O)OC)sc2-3)cn1.O=C(O)C(F)(F)F (stereo not given) has what Population Hoechst High Intensity Objects (%)?
## Output 10

## Input Entry CCn1ccc(Nc2ncc3c(n2)-c2c(nn(C)c2-c2ccc(-c4cnn(C)c4)cc2Cl)CC3)n1 has what Population Hoechst High Intensity Objects (%)?
## Output 11

## Input Entry CC1=C(C)C(=O)C(C(C)(C)CC(=O)N(CCCCSC[C@H]2O[C@@H](n3cnc4c(N)ncnc43)[C@H](O)[C@@H]2O)Cc2cccc(-c3ccc(Cl)cc3)c2)=C(C)C1=O has what Population Hoechst High Intensity Objects (%)?
## Output 7

## Input Entry COc1ncc(-c2cc(-c3ncc(CN4C[C@@H](C)O[C@@H](C)C4)o3)c3cn[nH]c3c2)cc1NS(C)(=O)=O has what Population Hoechst High Intensity Objects (%)?
## Output 9
